Cited source for all entries: ChEMBL document CHEMBL5038578

assay: AUC (0 to infinity) in CD1 mouse at 5 mg/kg, iv measured after 24 hrs by LC-MS/MS analysis; format: ADME, organism-based; set-up: route intravenous, dose 5 mg/kg, time 24 hrs; conditions: in vivo
metric: AUC(0-inf) (ng·h/mL)
# number only, unit ng·h/mL dropped from output

What does the data say about its AUC(0-inf)? Entry: O=C[C@H](C[C@@H]1CCNC1=O)NC(=O)[C@H](Cc1ccccc1)NC(=O)c1cc2ccccc2[nH]1
1740

What does the data say about its AUC(0-inf)? Entry: CC(C)[C@H](NC(=O)c1ccc2ccccc2n1)C(=O)N[C@@H](Cc1ccccc1)C(=O)N[C@H](C=O)C[C@@H]1CCNC1=O
1390

* * *

assay: Bioavailability in CD1 mouse at 5 mg/kg, sc measured after 24 hrs by LC-MS/MS analysis; assay type: ADME, organism-based; conditions: in vivo
metric: bioavailability (%)
# number only, unit % dropped from output

What does the data say about its bioavailability? Entry: CC(C)[C@H](NC(=O)c1ccc2ccccc2n1)C(=O)N[C@@H](Cc1ccccc1)C(=O)N[C@H](C=O)C[C@@H]1CCNC1=O
96

* * *

assay: AUClast in CD1 mouse at 20 mg/kg, ip measured after 24 hrs by LC-MS/MS analysis; format: ADME, organism-based; parameters: route intraperitoneal, time 24 hrs, dose 20 mg/kg; conditions: in vivo
metric: AUC(0-t) at 24 h (ng·h/mL)
# number only, unit ng·h/mL dropped from output

What does the data say about its AUC(0-t) at 24 h? Entry: O=C[C@H](C[C@@H]1CCNC1=O)NC(=O)[C@H](Cc1ccccc1)NC(=O)c1cc2ccccc2[nH]1
16000

What does the data say about its AUC(0-t) at 24 h? Entry: CC(C)[C@H](NC(=O)c1ccc2ccccc2n1)C(=O)N[C@@H](Cc1ccccc1)C(=O)N[C@H](C=O)C[C@@H]1CCNC1=O
4640

* * *

test: Tmax in CD1 mouse at 20 mg/kg, ip measured after 24 hrs by LC-MS/MS analysis; type: ADME, organism-based; conditions: in vivo
metric: Tmax (min)
# number only, unit min dropped from output

What does the data say about its Tmax? Entry: CC(C)[C@H](NC(=O)c1ccc2ccccc2n1)C(=O)N[C@@H](Cc1ccccc1)C(=O)N[C@H](C=O)C[C@@H]1CCNC1=O
15

What does the data say about its Tmax? Entry: O=C[C@H](C[C@@H]1CCNC1=O)NC(=O)[C@H](Cc1ccccc1)NC(=O)c1cc2ccccc2[nH]1
15

* * *

test system: rhinovirus A2; assay: Antiviral activity against wild type Rhinovirus-A02 infected in HeLa cells assessed as reduction in virus-induced cytopathic effect incubated for 3 days by MTS/PMS assay; assay type: functional, cell-based; conditions: Rhinovirus A, 72 h
metric: pEC50
A value of pEC50 is the negative decimal logarithm of a concentration given in moles per litre.

What does the data say about its pEC50? Entry: O=C[C@H](C[C@@H]1CCNC1=O)NC(=O)[C@H](Cc1ccccc1)NC(=O)c1cc2ccccc2[nH]1
5.79

What does the data say about its pEC50? Entry: O=C[C@H](C[C@@H]1CCNC1=O)NC(=O)[C@H](Cc1ccccc1)NC(=O)/C=C/c1ccccc1
5.18

What does the data say about its pEC50? Entry: CC(C)[C@H](NC(=O)c1cc2ccccc2[nH]1)C(=O)N[C@@H](Cc1ccccc1)C(=O)N[C@H](C=O)C[C@@H]1CCNC1=O
5.99

What does the data say about its pEC50? Entry: COC(=O)/C=C/[C@H](C[C@@H]1CCNC1=O)NC(=O)[C@H](Cc1ccccc1)NC(=O)/C=C/c1ccccc1
5.77
